- TARGET ENTITY: 5-Lipoxygenase from RBL-1 20,000 xg Supernatant (Rattus norvegicus, UniProt P12527)
- Construct: supermatant from 1.5 million homogenized RBL-1 cells; endogenous in cells
- Sequence (P12527 whole entry): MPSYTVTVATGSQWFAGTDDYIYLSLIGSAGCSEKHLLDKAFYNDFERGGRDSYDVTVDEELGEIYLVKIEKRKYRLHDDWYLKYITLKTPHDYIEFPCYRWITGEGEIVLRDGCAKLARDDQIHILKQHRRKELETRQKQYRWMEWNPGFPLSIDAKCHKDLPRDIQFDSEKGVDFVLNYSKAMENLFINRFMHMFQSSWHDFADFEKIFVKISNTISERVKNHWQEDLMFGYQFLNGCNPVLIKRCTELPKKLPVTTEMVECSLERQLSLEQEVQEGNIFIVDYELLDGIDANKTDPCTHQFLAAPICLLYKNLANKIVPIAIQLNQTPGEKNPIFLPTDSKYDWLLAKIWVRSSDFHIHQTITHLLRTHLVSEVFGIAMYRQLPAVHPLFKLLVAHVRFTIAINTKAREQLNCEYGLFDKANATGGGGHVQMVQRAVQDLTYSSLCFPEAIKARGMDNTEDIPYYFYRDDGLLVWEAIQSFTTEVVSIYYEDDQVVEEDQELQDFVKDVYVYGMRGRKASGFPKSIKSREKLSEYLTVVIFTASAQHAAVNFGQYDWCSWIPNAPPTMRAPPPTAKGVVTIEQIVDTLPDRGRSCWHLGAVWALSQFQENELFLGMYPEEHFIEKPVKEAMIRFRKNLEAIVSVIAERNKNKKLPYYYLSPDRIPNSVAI
- ASSAY EXPLANATION: In vitro inhibition of 5-lipoxygenase from RBL-1 20,000 xg supernatant
- MEASUREMENT PARAMETERS: radiolabeled arachidonic acid
pIC50: −log10 of the molar value.

MOLECULE: CNC(=O)N(O)Cc1ccc(OCc2ccccc2)cc1 [Example 6]
pIC50: 6.27
//
MOLECULE: CC(c1ccc(Br)cc1)N(O)C(N)=O (stereo not shown) [Example 97, N-Hydroxy-N-1-(4-bromophenyl)ethylurea]
pIC50: 6.70
//
MOLECULE: Cc1cc(C(C)N(O)C(N)=O)c(C)s1 (stereo not shown) [Example 42]
pIC50: 5.82
//
MOLECULE: C=CCN(CC=C)c1ccc(C(C)N(O)C(N)=O)cc1 (stereo not shown) [Example 121]
pIC50: 6.13
//
MOLECULE: NC(=O)N(O)CC=Cc1ccsc1 [Example 68]
pIC50: 5.72
//
MOLECULE: CC(c1ccc(OCc2ccccc2)cc1)N(O)C(N)=O (stereo not shown) [Example 1]
pIC50: 6.37
//
MOLECULE: NC(=O)N(O)Cc1sccc1Sc1ccc(Br)cc1 [Example 141]
pIC50: 6.70
//
MOLECULE: CNC(=O)N(O)Cc1ccc(C)s1 [Example 52]
pIC50: 5.41
//
MOLECULE: COC(=O)CCCNC(=O)N(O)C(C)c1ccsc1 (stereo not shown) [Example 61]
pIC50: 5.68
//
MOLECULE: CC(c1ccc(OCc2ccccc2)cc1)N(O)C(=O)NO (stereo not shown) [Example 4]
pIC50: 6.30
